tested target: delF508-CFTR (Homo sapiens, UniProt P13569, DEL508-508)
Construct: functional activity of the CFTR channel (Chloride ion transport) in patient derived primary human bronchial epithelial cells
Sequence (P13569 with tags, fused parts or gaps DEL508-508): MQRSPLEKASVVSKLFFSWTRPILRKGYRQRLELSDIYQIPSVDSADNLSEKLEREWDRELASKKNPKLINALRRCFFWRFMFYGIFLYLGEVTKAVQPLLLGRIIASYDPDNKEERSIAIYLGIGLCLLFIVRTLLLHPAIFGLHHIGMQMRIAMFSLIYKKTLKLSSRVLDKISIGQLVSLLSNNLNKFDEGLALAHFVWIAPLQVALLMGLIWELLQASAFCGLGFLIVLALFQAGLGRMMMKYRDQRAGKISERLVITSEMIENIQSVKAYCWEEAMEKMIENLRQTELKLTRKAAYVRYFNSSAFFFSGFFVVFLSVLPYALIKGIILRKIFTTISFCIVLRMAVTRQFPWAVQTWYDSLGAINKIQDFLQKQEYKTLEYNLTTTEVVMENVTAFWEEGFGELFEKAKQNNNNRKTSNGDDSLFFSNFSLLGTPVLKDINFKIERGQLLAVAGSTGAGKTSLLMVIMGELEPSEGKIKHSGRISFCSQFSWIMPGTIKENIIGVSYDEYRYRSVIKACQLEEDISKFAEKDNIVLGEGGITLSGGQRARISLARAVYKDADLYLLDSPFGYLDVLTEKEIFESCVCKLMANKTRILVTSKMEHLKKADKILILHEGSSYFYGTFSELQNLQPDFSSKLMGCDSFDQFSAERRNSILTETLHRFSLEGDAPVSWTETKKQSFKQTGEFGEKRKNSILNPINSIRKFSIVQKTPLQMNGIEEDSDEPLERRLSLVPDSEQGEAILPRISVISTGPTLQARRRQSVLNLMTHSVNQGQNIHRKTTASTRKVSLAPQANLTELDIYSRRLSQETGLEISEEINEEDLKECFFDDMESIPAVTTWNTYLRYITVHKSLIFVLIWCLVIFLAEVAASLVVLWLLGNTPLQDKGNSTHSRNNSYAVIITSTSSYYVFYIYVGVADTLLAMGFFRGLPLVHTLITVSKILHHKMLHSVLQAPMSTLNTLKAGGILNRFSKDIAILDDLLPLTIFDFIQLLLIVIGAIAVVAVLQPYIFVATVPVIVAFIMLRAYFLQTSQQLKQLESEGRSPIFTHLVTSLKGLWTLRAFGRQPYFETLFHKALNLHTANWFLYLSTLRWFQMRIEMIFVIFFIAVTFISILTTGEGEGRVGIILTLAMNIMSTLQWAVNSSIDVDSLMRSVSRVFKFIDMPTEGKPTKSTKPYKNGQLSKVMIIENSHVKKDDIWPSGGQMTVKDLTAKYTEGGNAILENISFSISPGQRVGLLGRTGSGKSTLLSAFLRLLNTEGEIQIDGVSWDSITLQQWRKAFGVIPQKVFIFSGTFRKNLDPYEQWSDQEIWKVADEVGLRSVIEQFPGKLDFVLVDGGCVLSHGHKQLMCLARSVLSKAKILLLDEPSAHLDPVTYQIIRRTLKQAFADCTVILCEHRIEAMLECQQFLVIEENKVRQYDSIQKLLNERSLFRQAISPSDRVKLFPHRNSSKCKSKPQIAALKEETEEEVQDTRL
test details: Measurement of delF508-CFTR functional activity in primary human bronchial epithelial cells (HBECs) using Multi-Transepithelial Clamp Circuit (MTECC-24) assay
test parameters: primary CF HBECs; test compound added 24h before assay, in the presence of potentiator; mean of at least two replicates; read-out: MTECC24 CFHBEC- EC50
pEC50: −log10 of the molar value. Counter-ions that a name gives are not always drawn.
reported property: pEC50

Solved cases below.
compound: Nc1cccc(S(=O)(=O)Nc2ccc(C(F)(F)F)c(-c3ccccc3C3CC3)n2)n1
pEC50: 8.80
//
compound: Cc1ccc(F)cc1-c1nc(NS(=O)(=O)c2cccc(N3CCC[C@H](C(=O)O)C3)n2)ccc1C(F)(F)F
pEC50: 8.69
//
compound: Cc1ccccc1-c1nc(NS(=O)(=O)c2cccc(N3CCCC(C)(C(=O)O)C3)n2)ccc1C(F)(F)F (stereo not shown)
pEC50: 8.56

A. Cc1cccc(C)c1-c1nc(NS(=O)(=O)c2cccc(N)n2)ccc1C(F)(F)F
B. Cc1c(F)cccc1-c1nc(NS(=O)(=O)c2cccc(N3CCC(C)(C(=O)O)CC3)n2)ccc1Cl
C. Cc1cccc(C)c1-c1nc(NS(=O)(=O)c2cccc(N3CCN[C@H](CO)C3)n2)ccc1C(F)(F)F [Example 173, Hydrochloride]
Data request: Parameters: sort_field (pEC50), sort_dir (desc). Your task in answering is to list the labels in the requested order.
Data returned: A, B, C

P. Cc1ccc(F)cc1-c1nc(NS(=O)(=O)c2cccc(N3CC(C)(O)C3)n2)ccc1C(F)(F)F
Q. Cc1ccc(F)cc1-c1nc(NS(=O)(=O)c2cccc(N3CCN(C4CC4)CC3)n2)ccc1C(F)(F)F
Data request: Field: lower recorded pEC50 (choose P or Q ) Answer by quoting the chosen item's label.
Data returned: P

P. Cc1cccc(C)c1-c1nc(NS(=O)(=O)c2cccc(N3CCn4cc(C(F)(F)F)nc4C3)n2)ccc1Cl
Q. Cc1ccccc1-c1nc(NS(=O)(=O)c2cccc(N3CCC4(CCC[C@H]4N)CC3)n2)ccc1C(F)(F)F
R. Cc1c(C#N)cccc1-c1nc(NS(=O)(=O)c2cccc(N)n2)ccc1Cl
Data request: Put the items in sequence by pEC50, from largest down. Answer with the labels in sequence, matching the requested order.
Data returned: Q, P, R
(Q: 8.07, P: 7.42, R: 6.94)
